Assay: qHTS assay to identify small molecule antagonists of the thyroid receptor (TR) signaling pathway (AID 743065); note: nearly all actives have a fitted effect of over 55% in size
Conditions: GH3.TRE-Luc, T3-stimulated luciferase inhibition, 23.5 h; series mostly up to 70.3 µM
From the text: U.S. Tox21 Program National Center for Advancing Translational Sciences [NCATS] NIH Chemical Genomics Center [NCGC] U.S. Environmental Protection Agency [EPA] National Institutes of Environmental Health Sciences [NIEHS] National Toxicology Program [NTP] U.S. Food and Drug Administration [FDA] Tox21 Assay Overview: Thyroid receptor (TR), a nuclear hormone receptor, plays an important role in development, proliferation, differentiation, metabolism, brain function, and cardiovascular system. […]
Records with an inconclusive call do not appear. Activity calls are given as the source filed them. Calls come from the whole dose curve; as a rule, active = well fitted inhibition curve with a large enough effect in the repeat runs; inconclusive = weak or mixed curves; inactive = no such curve, though single readings can be large or run the other way.
Choose one outcome from this list and give only that: active, inactive

Look over these answered cases.
compound	assignedLabel
CNC(C)Cc1ccccc1 (stereo unspecified)	inactive
F/C(COc1ccc2c(c1)[nH]c1ccccc12)=C1/CN2CCC1CC2	active

Which outcome was assigned to C=C[C@H]1CN2CC[C@H]1C[C@H]2[C@H](OC(=O)OCC)c1ccnc2ccc(OC)cc12 in this test?
inactive

Call for entry CC[N+](C)(CC)CCOC(=O)C(O)(c1ccccc1)c1ccccc1 :
inactive

// return assay outcome for c1ccc(C2(N3CCCC3)CCCCC2)cc1
active

Could you kindly confirm the outcome this assay logged for c1ccccc1 ?
inactive

State the result this test recorded for CCNCC(O)c1cccc(O)c1 (stereo unspecified) .
inactive

What did this assay record as the result for CC(=O)OCC(=O)[C@H]1CC[C@H]2[C@@H]3CC[C@H]4C[C@H](O)CC[C@]4(C)[C@H]3C(=O)C[C@]12C ?
inactive

----------
Assay: qHTS assay to identify aromatase inhibitors - cell viability counter screen (AID 743084);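 note: cells stimulated with testosterone during compound exposure; nearly all actives have a fitted effect of over 55% in size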
Details: MCF-7 aro ERE viability, CellTiter-Fluor, 24 h; series mostly up to 70.3 µM
Results filed as inconclusive are left out. Activity calls are given as the source filed them. Calls follow the shape of the dose curve; as a rule, active = well fitted cell-killing curve with a large enough effect in the repeat runs; inconclusive = weak or mixed curves, or effect the other way; inactive = no such curve, though single readings can be large or run the other way.
One label from this list, please: 1 for active, 0 for inactive

molecule	assignedLabel
O=C1Nc2ccc(Cl)cc2C(c2ccccc2Cl)=NC1O (configuration not stated)	0
O=C(OCCN1CCCCC1)C(O)(c1ccccc1)c1ccccc1	0
CCNC(C)Cc1cccc(C(F)(F)F)c1 (configuration not stated)	0
c1cc2c(c(NC3=NCCN3)c1)CCCC2	0
CN1[C@@H]2CC[C@H]1CC(OC1c3ccccc3CCc3ccccc31)C2 (some centres not stated)	0

// return assay outcome for C[C@@H]1[C@H](O)[C@@H](C)/C=C/C=C/CC/C=C/C=C/C=C/C=C/[C@H](O[C@H]2O[C@@H](C)[C@H](O)[C@@H](N)[C@H]2O)CC2O[C@](O)(C[C@@H](O)[C@H](O)CC[C@@H](O)C[C@@H](O)C[C@@H](O)CC(=O)O[C@H]1C)C[C@H](O)[C@H]2C(=O)O
0

What did this assay record as the result for C[C@]12CC[C@@H]3c4ccc(OC(=O)N(CCCl)CCCl)cc4CC[C@H]3[C@@H]1CC[C@@H]2OP(=O)(O)O ?
0

Outcome logged for C/C(=C\c1csc(C)n1)[C@@H]1C[C@@H]2O[C@]2(C)CCC[C@H](C)[C@H](O)[C@@H](C)C(=O)C(C)(C)[C@@H](O)CC(=O)O1 in this assay:
0

State the result this test recorded for C[C@H]1CC[C@]2(NC1)O[C@H]1C[C@H]3[C@@H]4CC[C@H]5C[C@@H](O[C@@H]6O[C@H](CO)[C@H](O[C@@H]7O[C@H](CO)[C@@H](O)[C@H](O[C@@H]8OC[C@@H](O)[C@H](O)[C@H]8O)[C@H]7O[C@@H]7O[C@H](CO)[C@@H](O)[C@H](O)[C@H]7O)[C@H](O)[C@H]6O)CC[C@]5(C)[C@H]4CC[C@]3(C)[C@H]1[C@@H]2C .
1

Call for entry CCc1cc(OC)c(C[C@@H](C)N)cc1OC :
0

Check the results log: what was the call for CCNCC(O)c1cccc(O)c1 (configuration not stated) ?
0

Which outcome did this test record for the molecule O=[N+]([O-])c1cc(I)c(O)c(I)c1 ?
0

Dear all, I need the recorded test outcome for COC(=O)[C@H]1[C@@H](OC(=O)c2ccccc2)C[C@@H]2CC[C@H]1N2C , thank you.
0

// outcome(item) with item = CC(C)CCC(=O)O[C@H]1CC[C@H]2[C@@H]3CCC4=CC(=O)CC[C@]4(C)[C@H]3CC[C@]12C
0

Called result for C[C@H]1[C@H]2Cc3ccc(O)cc3[C@]1(C)CCN2CCc1ccccc1
0

Which outcome was entered for the molecule CN=C1CN(O)C(c2ccccc2)=c2cc(Cl)ccc2=N1 in this test?
0

// return assay outcome for CCN(CC)CCO[C@H]1CC[C@@]2(C)C(=CC[C@@H]3[C@@H]2CC[C@]2(C)C(=O)CC[C@@H]32)C1
0

----------
Molecular target: Acetylcholinesterase (Homo sapiens)
Test: Acetylcholinesterase (AChE) small molecule antagonists: enzyme-based qHTS assay (AID 1347397); note: nearly all actives have a fitted effect of over 55% in size
Settings: AChE enzyme activity inhibition; series mostly up to 115 µM
Description: National Center for Advancing Translational Sciences [NCATS] Division of Preclinical Innovation [DPI] U.S. Environmental Protection Agency [EPA] National Institutes of Environmental Health Sciences [NIEHS] National Toxicology Program [NTP] U.S. Food and Drug Administration [FDA] Acetylcholinesterase (AChE) is the primary cholinesterase in the body that hydrolyzes a key neurotransmitter, acetylcholine. Inhibition of AChE activity can lead to neurotoxicity. […]
Activity calls are given as the source filed them. The call rests on the fitted dose curve.
Outcome (select one): active, inactive

compound	assignedLabel
Nc1ccc(C(=O)Nc2ccccc2N)cc1	inactive
Oc1ccc(CCNCCCCCCNCCc2ccccc2)cc1O	active
O=C(O)c1ccc([N+](=O)[O-])cc1	inactive
CC(C)(C)c1cc(CCC(=O)OCC(COC(=O)CCc2cc(C(C)(C)C)c(O)c(C(C)(C)C)c2)(COC(=O)CCc2cc(C(C)(C)C)c(O)c(C(C)(C)C)c2)COC(=O)CCc2cc(C(C)(C)C)c(O)c(C(C)(C)C)c2)cc(C(C)(C)C)c1O	inactive
CCCCCC1=CCCC1=O	inactive
CSCCC=O	inactive

Entry COc1ccc(OC)c(C(O)CNC(=O)CN)c1 (configuration not stated) : call = ?
inactive

Call for entry Cc1ccc(S(=O)(=O)O)c(C)c1 :
inactive

Which outcome was entered for the compound OCCCCC(O)CO (configuration not stated) in this test?
inactive

Identify the outcome logged in this assay for the compound shown: O=C(O)CCCC(=O)O
inactive

Status in this test for CC1(C)[C@H]2CC[C@]1(C)[C@H](O)C2 ?
inactive

Test call for this compound, please: CCCCCCO
inactive

----------
Target: Acetylcholinesterase (Homo sapiens)
Assay: Acetylcholinesterase (AChE) small molecule antagonists: enzyme-based qHTS assay (AID 1347397); note: nearly all actives have a fitted effect of over 55% in size
Settings: AChE enzyme activity inhibition; series mostly up to 115 µM
Active and inactive are the calls of the source. The call rests on the fitted dose curve.
Please reply with one of these outcomes: True for active, False for inactive

Reference set (3 entries):
> print(dat)
                                   compound  assignedlabel
1  CC(C)(c1cc(Br)c(OCC(Br)CBr)c(Br)c1)c1cc(Br)c(OCC(Br)CBr)c(Br)c1 (centres undefined)          False
2                     CC(C)CCOC(=O)c1ccccc1          False
3                                CCCC(=O)OC          False

How did this test come out for c1ccsc1 ?
False

In this assay, the call recorded for CC(O)(c1ccc(Cl)cc1)c1ccc(Cl)cc1 was what?
False

----------
Assay: qHTS assay to identify small molecule antagonists of the glucocorticoid receptor (GR) signaling pathway - cell viability counter screen (AID 720693); note: nearly all actives have a fitted effect of over 55% in size
Settings: GR-bla HeLa viability, CellTiter-Glo luminescence, 18 h, with 5 nM dexamethasone present; series mostly up to 58.5 µM
Results filed as inconclusive are left out. The source made the active and inactive calls. Calls come from the whole dose curve; as a rule, active = well fitted cell-killing curve with a large enough effect in the repeat runs; inconclusive = weak or mixed curves, or effect the other way; inactive = no such curve, though single readings can be large or run the other way.
Returns: one label drawn from active, inactive

Consider the following illustrative entries.
molecule	assignedLabel
O=C1CN=C(c2ccccc2)c2cc(Cl)ccc2N1	inactive
O=P(O)(O)C(Cl)(Cl)P(=O)(O)O	inactive
CO[C@H]1[C@@H](O)C[C@H](O[C@H]2[C@@H](O)C[C@H](O[C@H]3[C@@H](O)C[C@H](O[C@H]4CC[C@@]5(C)[C@H](CC[C@@H]6[C@@H]5C[C@@H](O)[C@]5(C)[C@@H](C7=CC(=O)OC7)CC[C@]65O)C4)O[C@@H]3C)O[C@@H]2C)O[C@@H]1C	active
C[C@]12CC[C@H](OS(=O)(=O)O)CC1=CC[C@@H]1[C@@H]2CC[C@]2(C)C(=O)CC[C@@H]12	inactive
CCN(CC)C(=O)N[C@H]1C[C@@H]2c3cccc4[nH]cc(c34)C[C@H]2N(C)C1	inactive
C[C@@H]1[C@@H]2Cc3ccc(O)cc3[C@@]1(C)CCN2CC1CC1	inactive
CCC/C=C/C=C/C(=O)O[C@H]1/C(=C/C(=O)OC)C[C@H]2C[C@H]([C@@H](C)O)OC(=O)C[C@H](O)C[C@@H]3C[C@H](OC(C)=O)C(C)(C)[C@](O)(C[C@@H]4C/C(=C/C(=O)OC)C[C@H](/C=C/C(C)(C)[C@]1(O)O2)O4)O3	inactive

GET /call?item= NC1=NC(=O)N2CC12 (stereo not drawn) returns the recorded outcome of this test.
inactive
